# maps each entry to its abundance fitness
B1: Gamma-crystallin C, residues 4 to 79; numbered along this chain, P07315 (parent)
chain: ITFYEDRAFQGRSYETTTDCPNLQPYFSRCNSIRVESGCWMLYERPNYQGQQYLLRRGEYPDYQQWMGLSDSIRSC

# Variants of: B1
# protocol_notes: abundance fitness (aPCA) (normalised: wild type 0, dead -1); higher = more abundant; growth selection in yeast, the domain comes from the species named
# settings: Homo sapiens
Give your answer as a number; write no unit.

Answered examples (4):
INSERT INTO results (residue_string, experimental_readout, numeric_readout) VALUES
  ('ITFYEDRAFQGRSYETTTDCPNLQPYFSRCNSIRVESGCWMLYERPNYQNQQYLLRRGEYPDYQQWMGLSDSIRSC', 'abundance fitness', -0.359),
  ('ITFYEDRAFQGRSYETTTDCPNLQPYFSRCNSIRVESGCWMLYERPNYQGQQYLLRRGEYPDYQQWMGKSDSIRSC', 'abundance fitness', -0.104),
  ('ITFYEDRAFQGRSYETTTDCPNLQPYFSRCNSIRVESGCWMLYERPNYQGQQYLLRRGEYPDYQQWMGLSDSIRYC', 'abundance fitness', -0.599),
  ('ITFYEDRAFQGISYETTTDCPNLQPYFSRCNSIRVESGCWMLYERPNYQGQQYLLRRGEYPDYQQWMGLSDSIRSC', 'abundance fitness', 0.017);

Suppose we examine the variant "ITFYEDRAFQDRSYETTTDCPNLQPYFSRCNSIRVESGCWMLYERPNYQGQQYLLRRGEYPDYQQWMGLSDSIRSC" ; what abundance fitness value has been reported?
-0.5

Here is the next variant: "ITFYEDRAFQGRSYETTTDCKNLQPYFSRCNSIRVESGCWMLYERPNYQGQQYLLRRGEYPDYQQWMGLSDSIRSC"
0.016

Here is the next variant: "ITFYEDRAFQGCSYETTTDCPNLQPYFSRCNSIRVESGCWMLYERPNYQGQQYLLRRGEYPDYQQWMGLSDSIRSC"
-0.063

Here is the next variant: "ITFYEDRAFQGRSYATTTDCPNLQPYFSRCNSIRVESGCWMLYERPNYQGQQYLLRRGEYPDYQQWMGLSDSIRSC"
-0.113

Here is the next variant: "ITFYEDRAFQGRSYETTTDCPNLQPYFSRCNSIRVESGCWYLYERPNYQGQQYLLRRGEYPDYQQWMGLSDSIRSC"
0.032

Here is the next variant: "ITFYEDRAFQGRSYETTTDCPNLQPYFSRCNSIRVEMGCWMLYERPNYQGQQYLLRRGEYPDYQQWMGLSDSIRSC"
-0.031

Here is the next variant: "ITFYEDRAFQGRSYETTTDCPNLQPYFSRCNSIRVESGCWMLYERPNYQGQQYNLRRGEYPDYQQWMGLSDSIRSC"
-0.025

Here is the next variant: "ITFYEDRAFQGRSYETTTDCPNLQPYFSRCNSIRVISGCWMLYERPNYQGQQYLLRRGEYPDYQQWMGLSDSIRSC"
-0.201

Here is the next variant: "ITFYEDRAFQGRSYETTTDCPNLQPYFSRCNSIRVESGCWMLYERPNYQGQQFLLRRGEYPDYQQWMGLSDSIRSC"
-0.015

Here is the next variant: "ITFYEDRAFQGRSYETTTDCPNLQPYFSRCNSIRTESGCWMLYERPNYQGQQYLLRRGEYPDYQQWMGLSDSIRSC"
-0.081
